System: FT3469 (normal neural stem cell line)
RUN_DESCRIPTION: surviving fraction (nuclei count normalised to DMSO); higher = more cells surviving (less toxic);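 also: nuclei counted by high-content imaging of Hoechst-stained cells in laminin-coated 384-well plates, relative to 0.1% DMSO vehicle wells, with staurosporine as cell-death control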
ASSAY_CONDITIONS: 37.037 nM; exposure time: 72 h
Can you tell me surviving fraction for the items I'm about to list?
One number for each entry.

// input: 3 molecules below; output: surviving fraction for each
1. C[C@@H](O)[C@H]1C(=O)N2C(C(=O)O)=C(S[C@@H]3CN[C@H](C(=O)N(C)C)C3)[C@H](C)[C@H]12
2. OCCN1C[C@H](O)[C@@H](O)[C@H](O)[C@H]1CO
3. CC(C)C[C@H](NC(=O)[C@H](Cc1ccccc1)NC(=O)c1cnccn1)B(O)O

1.17
0.984
0.233

---

Test system: E34 (patient-derived glioblastoma stem cells of proneural subtype)
RUN_DESCRIPTION: surviving fraction (nuclei count normalised to DMSO); higher = more cells surviving (less toxic)
ASSAY_CONDITIONS: 1000 nM; exposure time: 72 h
Counter-ions that a name gives are not always drawn.
Kindly state surviving fraction for each of the entries shown.
Numbers only.

| MOLECULE | surviving fraction |
| --- | --- |
| C=C(C)[C@H]1Cc2c(ccc3c2O[C@@H]2COc4cc(OC)c(OC)cc4[C@@H]2C3=O)O1 [Rotenone] | 0.786 |
| COc1cccc2c(NCc3ccccc3)nc(-n3c(N)nc4ccccc43)nc12 [ML240] | 0.54 |
| CC(C)C[C@H](NC(=O)CNC(=O)c1cc(Cl)ccc1Cl)B1OC(=O)C(CC(=O)O)(CC(=O)O)O1 [MLN9708] | 0.0421 |

Quick one: give me surviving fraction for each item below, same order please.
1. Clc1ccc(COC(Cn2ccnc2)c2ccc(Cl)cc2Cl)cc1 (stereo unspecified) [Econazole nitrate]
2. COc1ccc(C(=O)CC(=O)c2ccc(C(C)(C)C)cc2)cc1 [Avobenzone]
3. OCCN1CCN(CCCN2c3ccccc3Sc3ccc(C(F)(F)F)cc32)CC1 [Fluphenazine dihydrochloride]

1. 1.11
2. 1.03
3. 1.05

Give me surviving fraction for each of these molecules, listed below.
1. CCCCC1C(=O)N(c2ccccc2)N(c2ccc(O)cc2)C1=O (stereo unspecified) [Oxyphenbutazone]
2. Cc1[nH]nc(C(F)(F)F)c1Cc1sc2c(c1C(=O)N1C[C@](C)(O)CO1)c(=O)n(C)c(=O)n2C(C)C [AZD3965]
3. O=C(/C=C/c1cccnc1)NCCCCC1CCN(C(=O)c2ccccc2)CC1 [Daporinad]
4. CC[C@]1(O)C[C@@H]2CN(CCc3c([nH]c4ccccc34)[C@@](C(=O)OC)(c3cc4c(cc3OC)N(C)[C@H]3[C@@](O)(C(=O)OC)[C@H](OC(C)=O)[C@]5(CC)C=CCN6CC[C@]43[C@@H]65)C2)C1 [Vinblastine sulfate]
5. Cc1ccc2c(c1)C1(CCN(CCc3nc(-c4ccccc4)oc3C)CC1)OC(=O)N2
6. CC(C)C[C@H](NC(=O)[C@H](Cc1ccccc1)C[C@@H](O)[C@H](Cc1ccccc1)NC(=O)OC(C)(C)C)C(=O)N[C@@H](Cc1ccccc1)C(N)=O [L-685,458]
7. CN1C(=O)OC(C)(C)C1=O [Trimethadione]

1: 1.11; 2: 0.7; 3: 0.855; 4: 0.226; 5: 1.07; 6: 1; 7: 0.961

Working through the 5 molecules below one at a time, give surviving fraction for each.
1. C[C@H](NC(=O)[C@@H](O)c1cc(F)cc(F)c1)C(=O)N[C@@H]1C(=O)N(C)c2ccccc2-c2ccccc21
2. NC(=O)c1ccccc1 [Benzamide]
3. COc1cccc2c1C(=O)c1c(O)c3c(c(O)c1C2=O)C[C@@](O)(C(=O)CO)C[C@@H]3O[C@H]1C[C@H](N)[C@H](O[C@@H]2CCCCO2)[C@H](C)O1 [Pirarubicin]
4. CCOC(=O)C1=C(C)NC(C)=C(C(=O)OCC)C1c1c(F)c(F)c(F)c(F)c1F [Nemadipine-A]
5. C[C@H](Cc1cc2c(c(C(N)=O)c1)N(CCCO)CC2)NCCOc1ccccc1OCC(F)(F)F [Silodosin]

1: 0.775; 2: 1.29; 3: 0.488; 4: 0.926; 5: 0.863

For each entry beneath this line, provide reported surviving fraction.
1. CC[C@@H]1C(=O)N(C)c2cnc(Nc3ccc(C(=O)N[C@H]4CC[C@H](N5CCN(CC6CC6)CC5)CC4)cc3OC)nc2N1C(C)C [Volasertib]
2. CCn1cc(C(=O)O)c(=O)c2cc(F)c(N3CCNCC3)nc21 [Enoxacin]
3. Oc1ccc(OCc2ccccc2)cc1 [Monobenzone]
4. O=C(O)c1ccc(-c2c[nH]c3ncc(-c4ccccc4)cc23)cc1C1CCCC1
5. CN1C(=O)[C@@]23C[C@]4([C@]56C[C@@]78SS[C@@](CO)(C(=O)N7[C@H]5Nc5ccccc56)N(C)C8=O)c5ccccc5N[C@@H]4N2C(=O)[C@]1(CO)SS3 [Chaetocin]

1. 0.414
2. 1.1
3. 1.12
4. 0.714
5. 0.0187

---

Provide the reported surviving fraction of each item.
Tested on: E21 (patient-derived glioblastoma stem cells of mesenchymal subtype)
RUN_DESCRIPTION: surviving fraction (nuclei count normalised to DMSO); higher = more cells surviving (less toxic)
ASSAY_CONDITIONS: 1000 nM; exposure time: 72 h
Counter-ions that a name gives are not always drawn.
Give bare numbers.

Report surviving fraction for each item below.
1. CC[n+]1c(/C=C/C=C2/N(C)c3ccccc3C2(C)C)sc2ccccc21
2. O=C1CCc2cc(OCCCCc3nnnn3C3CCCCC3)ccc2N1 [Cilostazol]

[0.462, 0.949]

For each of the items listed, what is its surviving fraction?
1. Cc1nc2ccccn2c(=O)c1CCN1CCC(C(=O)c2ccc(F)cc2)CC1 [Pirenperone]
2. C[C@H](Cc1cc2c(c(C(N)=O)c1)N(CCCO)CC2)NCCOc1ccccc1OCC(F)(F)F [Silodosin]

[1.12, 1.04]

For every item in the list below, what is its measured surviving fraction?
1. CC[C@@]1(O)C(=O)OCc2c1cc1n(c2=O)Cc2cc3cc(O)ccc3nc2-1 [Hydroxy Camptothecine]
2. COc1cc2c(cc1O)CC[C@@H]1[C@@H]2CC[C@]2(C)[C@@H](O)CC[C@@H]12 [2-methoxyestradiol]
3. NC1CCN(c2nc3c(cc2F)c(=O)c(C(=O)O)cn3-c2ccc(F)cc2F)C1 (stereo not drawn) [Tosufloxacin hydrochloride]
4. COc1cc2c(NC3CCN(C(C)C)CC3)nc(C3CCCCC3)nc2cc1OCCCN1CCCC1 [UNC0638]

0.106
0.803
0.989
0.933

---

Assign surviving fraction to each entry below.
Tested on: FT3469
RUN_DESCRIPTION: surviving fraction (nuclei count normalised to DMSO); higher = more cells surviving (less toxic)
ASSAY_CONDITIONS: 12.3 nM; exposure time: 72 h
Where a name gives a salt, the structure may show the parent alone.
One number for each entry.

| MOLECULE | MEAS_VALUE |
| --- | --- |
| N=C(N)c1ccc(-c2ccc(-c3ccc(C(=N)N)cc3)o2)cc1 [Furamidine dihydrochloride] | 0.883 |

Batch: surviving fraction for all items listed.
1. COc1cc(OC)c(C(=O)CCCN2CCCC2)c(OC)c1 [Buflomedil hydrochloride]
2. N=C(NCCCCCCNC(=N)NC(=N)Nc1ccc(Cl)cc1)NC(=N)Nc1ccc(Cl)cc1
3. Cc1cc(CN2CCN(c3c(Br)cnc4nc(-c5ccc(N6CCN(C)CC6)cc5)[nH]c34)CC2)no1
4. Clc1ccc(COC(Cn2ccnc2)c2ccc(Cl)cc2Cl)cc1 (stereo not drawn) [Econazole nitrate]
5. C/C(=C\c1csc(C)n1)[C@@H]1C[C@@H]2O[C@]2(C)CCC[C@H](C)[C@H](O)[C@@H](C)C(=O)C(C)(C)[C@@H](O)CC(=O)N1 [Ixabepilone]
6. Nc1nc(=O)c2nc(CNc3ccc(C(=O)N[C@@H](CCC(=O)O)C(=O)O)cc3)cnc2[nH]1

[1.27, 0.955, 0.758, 0.949, 0.624, 1.03]

---

Tested on: E21
RUN_DESCRIPTION: surviving fraction (nuclei count normalised to DMSO); higher = more cells surviving (less toxic)
ASSAY_CONDITIONS: 37 nM; exposure time: 72 h
Where a name gives a salt, the structure may show the parent alone.
MEASUREMENT_KIND: surviving fraction
Answers are plain numbers.

| COMPOUND | TARGET_OR_TEST_SYSTEM | surviving fraction |
| --- | --- | --- |
| CN[C@@H]1[C@@H](O)[C@@H](O[C@@H]2[C@@H](O)[C@H](O[C@H]3OC(CN)=CC[C@H]3N)[C@@H](N)C[C@H]2N)OC[C@]1(C)O [Sisomicin sulfate] | E21 | 0.919 |
| CN[C@@H](C)C(=O)N[C@H](C(=O)N1CCC[C@H]1C(=O)N[C@H]1c2ccccc2C[C@H]1OCC#CC#CCO[C@@H]1Cc2ccccc2[C@@H]1NC(=O)[C@@H]1CCCN1C(=O)[C@@H](NC(=O)[C@H](C)NC)C1CCCCC1)C1CCCCC1 | E21 | 0.742 |
| CC(=O)O[C@H]1C[C@H](O[C@H]2[C@@H](O)C[C@H](O[C@H]3[C@@H](O)C[C@H](O[C@H]4CC[C@@]5(C)[C@H](CC[C@@H]6[C@@H]5C[C@@H](O)[C@]5(C)[C@@H](C7=CC(=O)OC7)CC[C@]65O)C4)O[C@@H]3C)O[C@@H]2C)O[C@H](C)[C@H]1O[C@@H]1O[C@H](CO)[C@@H](O)[C@H](O)[C@H]1O [Lanatoside C] | E21 | 0.513 |
| CCCSc1ccc2[nH]c(NC(=O)OC)nc2c1 | E21 | 0.834 |

Then this compound:
Please report the recorded surviving fraction for COc1cc(/C=C/C(=O)N2CCC=CC2=O)cc(OC)c1OC .
0.997
